Target: HLA-B*45:01
Assay: IEDB peptide-MHC binding, purified MHC/competitive/radioactivity; filed as Kd, often an IC50 or EC50 that approximates it; bounds were set here for any values at or beyond the usual limits of such assays
Conditions: source organism: Lassa virus Josiah
Measured Attribute: Kd

Entry "FDAAVSGGL" , system HLA-B*45:01: what Kd was measured?
≥ 28.8 µM

###

Target: HLA-A*01:01
Assay: IEDB peptide-MHC binding, purified MHC/direct/fluorescence; filed as Kd, often an IC50 or EC50 that approximates it; bounds were set here for any values at or beyond the usual limits of such assays
Settings: source organism: Influenza A virus (A/chicken/Vietnam/5/2003(H5N1))
pKd: −log10 of the molar value.
Measured Attribute: pKd

Which pKd value is on record for "QTYDWTLNR" ?
≤ 4.70

###

Target: HLA-B*18:01
Assay: IEDB peptide-MHC binding, purified MHC/direct/fluorescence; filed as Kd, often an IC50 or EC50 that approximates it; bounds were set here for any values at or beyond the usual limits of such assays
Settings: source organism: Marburg virus - Musoke, Kenya, 1980
Measured Attribute: Kd (µM)
Expressed in µM, but write only the number.

Query: Kd; subject: "AEILSGRVI"
16.7

###

Molecular target: HLA-A*01:01
Assay: IEDB peptide-MHC binding, purified MHC/direct/fluorescence; filed as Kd, often an IC50 or EC50 that approximates it; bounds were set here for any values at or beyond the usual limits of such assays
Conditions: source organism: SARS-CoV1
Measured Attribute: Kd (nM)
Report the value in nM with no unit label.

Form field: reported Kd of "TSNPKTPKY"
4520

What value of Kd has been reported for the following sequence? "TCDGNTFTY"
531

###

Target: HLA-A*03:01
Test: IEDB peptide-MHC binding, purified MHC/competitive/fluorescence; filed as Kd, often an IC50 or EC50 that approximates it; bounds were set here for any values at or beyond the usual limits of such assays
Conditions: source organism: Pseudomonas aeruginosa UCBPP-PA14
Measured Attribute: pKd
pKd is defined as minus the log10 of a concentration measured in mol/L.

Item "AVFDGCVVY" has what recorded pKd?
6.54

###

Biological target: HLA-B*15:01
Test: IEDB peptide-MHC binding, purified MHC/competitive/fluorescence; filed as Kd, often an IC50 or EC50 that approximates it; bounds were set here for any values at or beyond the usual limits of such assays
Conditions: source organism: Zaire ebolavirus
Measured Attribute: Kd

I would be grateful if you could share the reported Kd for "ATEDPSSGY" .
≥ 20 µM

###

Molecular target: HLA-A*11:01
Assay: IEDB peptide-MHC binding, purified MHC/competitive/fluorescence; bounds were set here for any values at or beyond the usual limits of such assays
Conditions: source organism: Variola virus
Measured Attribute: pIC50
# pIC50 = -log10(concentration in molar units)

Could you tell me which pIC50 is on file for "EIFSAWISH" ?
4.65

###

Biological target: HLA-B*57:01
Assay: IEDB peptide-MHC binding, purified MHC/competitive/fluorescence; filed as Kd, often an IC50 or EC50 that approximates it; bounds were set here for any values at or beyond the usual limits of such assays
Conditions: source organism: Ephydatia fluviatilis
pKd: −log10 of the molar value.
Measured Attribute: pKd

Please give the measured pKd for this sequence: "TLKPGTMSV"
≤ 4.70

###

Biological target: HLA-B*15:01
Test: IEDB peptide-MHC binding, purified MHC/competitive/fluorescence; filed as Kd, often an IC50 or EC50 that approximates it; bounds were set here for any values at or beyond the usual limits of such assays
Details: source organism: Influenza A virus (A/swine/Italy/1513-1/1998(H1N1))
Measured Attribute: Kd

Can you look up the measured Kd of "MMWEINGPK" for me?
≥ 20 µM
